Data credit: paper PMC6201879

experimental_protocol: Pharmacokinetic profile in Sprague Dawley rats (IV and PO)
Format: in vivo
cond: PO 5 mg/kg in PBS, Mean + SD (n = 3)
In this section, each of the molecules is paired with its reported AUC last / D (PO).
A number alone suffices; assume ng·kg·h/mL/mg.

Field: example entries. Status: answers known.
CC(C)(C)c1ccc(O)c(C(=O)Nc2cc(C(=O)O)ccc2Cl)c1 :: 2490
CC(C)(C)c1ccc(O)c(C(=O)Nc2ccc(C(=O)O)cc2Cl)c1 :: 43.3
CC(C)(C)c1ccc(O)c(C(=O)Nc2ccc(C(=O)O)cc2C(F)(F)F)c1 :: 1290

# context switch: different molecule, same AUC last / D (PO)
Supply recorded AUC last / D (PO) for CC(C)(C)c1cc(C(=O)Nc2ccc(C(=O)O)cc2Cl)c(O)c(C(C)(C)C)c1 here.
3390

###

In this section, each of the molecules is paired with its reported Mean Revertant Colony Counts TA98 S9-.
Test system: Salmonella typhimurium TA98
experimental_protocol: Ames assay, strain TA98
cond: 25 ug/Well; without S9
Give a plain numeric answer without units written out.

Field: example entries. Status: answers known.
CC(C)(C)c1ccc(O)c(C(=O)Nc2ccc(C(=O)O)cc2Cl)c1 :: 9.0
CC(C)(C)c1ccc(O)c(C(=O)Nc2ccc(C(=O)O)cc2C(F)(F)F)c1 :: 7.7
CC(C)(C)c1ccc(O)c(C(=O)Nc2cc(C(=O)O)ccc2Cl)c1 :: 6.7

Look up and report Mean Revertant Colony Counts TA98 S9-, with Salmonella typhimurium TA98 as system, for CC(C)(C)c1cc(C(=O)Nc2ccc(C(=O)O)cc2Cl)c(O)c(C(C)(C)C)c1
3.0

###

Test system: Salmonella typhimurium TA98
experimental_protocol: Ames assay, strain TA98
cond: 64 ug/Well; with S9
In this section, each of the compounds is paired with its reported Mean Revertant Colony Counts TA98 SP9+.
Give a plain numeric answer without units written out.

Field: example entries. Status: answers known.
CC(C)(C)c1ccc(O)c(C(=O)Nc2ccc(C(=O)O)cc2Cl)c1 :: 9.0
CC(C)(C)c1ccc(O)c(C(=O)Nc2ccc(C(=O)O)cc2C(F)(F)F)c1 :: 8.3

Look up and report Mean Revertant Colony Counts TA98 SP9+, with Salmonella typhimurium TA98 as system, for CC(C)(C)c1cc(C(=O)Nc2ccc(C(=O)O)cc2Cl)c(O)c(C(C)(C)C)c1
8.7

Look up and report Mean Revertant Colony Counts TA98 SP9+, with Salmonella typhimurium TA98 as system, for CC(C)(C)c1ccc(O)c(C(=O)Nc2cc(C(=O)O)ccc2Cl)c1
8.0

###

experimental_protocol: Pharmacokinetic profile in Sprague Dawley rats (IV and PO)
Assay type: in vivo
cond: rat, plasma, IV 1 mg/kg, Mean + SD (n = 3)
In this section, each of the compounds is paired with its reported C0.
Please make sure the unit comes right after the number.

Field: example entries. Status: answers known.
CC(C)(C)c1ccc(O)c(C(=O)Nc2ccc(C(=O)O)cc2Cl)c1 [Compound 500200] :: 13800 ng/mL
CC(C)(C)c1ccc(O)c(C(=O)Nc2ccc(C(=O)O)cc2C(F)(F)F)c1 [Compound 500873] :: 24100 ng/mL
CC(C)(C)c1ccc(O)c(C(=O)Nc2cc(C(=O)O)ccc2Cl)c1 [Compound 600494] :: 22900 ng/mL

# context switch: different compound, same C0
Supply recorded C0 for CC(C)(C)c1cc(C(=O)Nc2ccc(C(=O)O)cc2Cl)c(O)c(C(C)(C)C)c1 [Compound 600453] here.
2820 ng/mL

###

In this section, each of the compounds is paired with its reported Tmax.
experimental_protocol: Pharmacokinetic profile in Sprague Dawley rats (IV and PO)
Type: in vivo
cond: rat, plasma, PO 5 mg/kg in PBS, Mean + SD (n = 3)
Please make sure the unit comes right after the number.

CC(C)(C)c1ccc(O)c(C(=O)Nc2ccc(C(=O)O)cc2Cl)c1 [Compound 500200] :: 3.33 h

Supply recorded Tmax for CC(C)(C)c1ccc(O)c(C(=O)Nc2ccc(C(=O)O)cc2C(F)(F)F)c1 [Compound 500873] here.
3.33 h

Supply recorded Tmax for CC(C)(C)c1cc(C(=O)Nc2ccc(C(=O)O)cc2Cl)c(O)c(C(C)(C)C)c1 [Compound 600453] here.
4 h

Supply recorded Tmax for CC(C)(C)c1ccc(O)c(C(=O)Nc2cc(C(=O)O)ccc2Cl)c1 [Compound 600494] here.
5.33 h

###

Tested on: Salmonella typhimurium TA98
experimental_protocol: Ames assay, strain TA98
cond: 10 ug/Well; without S9
In this section, each of the molecules is paired with its reported Mean Revertant Colony Counts TA98 S9-.
Give a plain numeric answer without units written out.

Field: example entries. Status: answers known.
CC(C)(C)c1cc(C(=O)Nc2ccc(C(=O)O)cc2Cl)c(O)c(C(C)(C)C)c1 :: 3.3
CC(C)(C)c1ccc(O)c(C(=O)Nc2ccc(C(=O)O)cc2Cl)c1 :: 8.7
CC(C)(C)c1ccc(O)c(C(=O)Nc2ccc(C(=O)O)cc2C(F)(F)F)c1 :: 4.0

Supply recorded Mean Revertant Colony Counts TA98 S9- for CC(C)(C)c1ccc(O)c(C(=O)Nc2cc(C(=O)O)ccc2Cl)c1 here.
7.3

###

experimental_protocol: Pharmacokinetic profile in Sprague Dawley rats (IV and PO)
Assay type: in vivo
cond: rat, plasma, IV 1 mg/kg, Mean + SD (n = 3), read-out: AUC Inf (IV)
In this section, each of the compounds is paired with its reported AUC(0-inf).
A number alone suffices; assume ng·h/mL.

Field: example entries. Status: answers known.
CC(C)(C)c1cc(C(=O)Nc2ccc(C(=O)O)cc2Cl)c(O)c(C(C)(C)C)c1 :: 5420
CC(C)(C)c1ccc(O)c(C(=O)Nc2ccc(C(=O)O)cc2Cl)c1 :: 1940
CC(C)(C)c1ccc(O)c(C(=O)Nc2cc(C(=O)O)ccc2Cl)c1 :: 18400

# context switch: different compound, same AUC(0-inf)
Supply recorded AUC(0-inf) for CC(C)(C)c1ccc(O)c(C(=O)Nc2ccc(C(=O)O)cc2C(F)(F)F)c1 here.
13000

###

Tested on: Salmonella typhimurium TA98
experimental_protocol: Ames assay, strain TA98
cond: 1.5 ug/Well; without S9
So basically: Mean Revertant Colony Counts TA98 S9- at 7 or higher? That is 1. Lower than 7? That is -1.

Solved cases below.
CC(C)(C)c1ccc(O)c(C(=O)Nc2ccc(C(=O)O)cc2C(F)(F)F)c1 [Compound 500873] :: -1
O=C(Nc1ccc([N+](=O)[O-])cc1Cl)c1cc(Cl)ccc1O [Niclosamide] :: -1

Hi team, for CC(C)(C)c1ccc(O)c(C(=O)Nc2ccc(C(=O)O)cc2Cl)c1 [Compound 500200] , is the recorded Mean Revertant Colony Counts TA98 S9- at or above 7?
1

Hi team, for CC(C)(C)c1cc(C(=O)Nc2ccc(C(=O)O)cc2Cl)c(O)c(C(C)(C)C)c1 [Compound 600453] , is the recorded Mean Revertant Colony Counts TA98 S9- at or above 7?
-1

Hi team, for CC(C)(C)c1ccc(O)c(C(=O)Nc2cc(C(=O)O)ccc2Cl)c1 [Compound 600494] , is the recorded Mean Revertant Colony Counts TA98 S9- at or above 7?
1

###

Tested on: Salmonella typhimurium TA98
experimental_protocol: Ames assay, strain TA98
cond: 160 ug/Well; with S9
measurement_name: Mean Revertant Colony Counts TA98 SP9+
Give a plain numeric answer without units written out.

CC(C)(C)c1cc(C(=O)Nc2ccc(C(=O)O)cc2Cl)c(O)c(C(C)(C)C)c1 :: 6.3
CC(C)(C)c1ccc(O)c(C(=O)Nc2ccc(C(=O)O)cc2Cl)c1 :: 11.0
CC(C)(C)c1ccc(O)c(C(=O)Nc2cc(C(=O)O)ccc2Cl)c1 :: 15.7

# context switch: different compound, same Mean Revertant Colony Counts TA98 SP9+
Supply recorded Mean Revertant Colony Counts TA98 SP9+ for CC(C)(C)c1ccc(O)c(C(=O)Nc2ccc(C(=O)O)cc2C(F)(F)F)c1 here.
10.3

###

System: Salmonella typhimurium TA100
cond: 4 ug/Well; without S9
measurement_name: Mean Revertant Colony Counts TA-100 S9-
Give a plain numeric answer without units written out.

Field: example entries. Status: answers known.
CC(C)(C)c1ccc(O)c(C(=O)Nc2cc(C(=O)O)ccc2Cl)c1 :: 27.0
CC(C)(C)c1cc(C(=O)Nc2ccc(C(=O)O)cc2Cl)c(O)c(C(C)(C)C)c1 :: 30.0
CC(C)(C)c1ccc(O)c(C(=O)Nc2ccc(C(=O)O)cc2Cl)c1 :: 25.7

# context switch: different molecule, same Mean Revertant Colony Counts TA-100 S9-
Look up and report Mean Revertant Colony Counts TA-100 S9-, with Salmonella typhimurium TA100 as system, for CC(C)(C)c1ccc(O)c(C(=O)Nc2ccc(C(=O)O)cc2C(F)(F)F)c1
31.7

###

In this section, each of the compounds is paired with its reported Mean Revertant Colony Counts TA-100 S9-.
System: Salmonella typhimurium TA100
cond: 160 ug/Well; without S9
Give a plain numeric answer without units written out.

CC(C)(C)c1ccc(O)c(C(=O)Nc2ccc(C(=O)O)cc2Cl)c1 :: 24.0
CC(C)(C)c1cc(C(=O)Nc2ccc(C(=O)O)cc2Cl)c(O)c(C(C)(C)C)c1 :: 21.3
CC(C)(C)c1ccc(O)c(C(=O)Nc2cc(C(=O)O)ccc2Cl)c1 :: 25.7

# context switch: different compound, same Mean Revertant Colony Counts TA-100 S9-
Supply recorded Mean Revertant Colony Counts TA-100 S9- for CC(C)(C)c1ccc(O)c(C(=O)Nc2ccc(C(=O)O)cc2C(F)(F)F)c1 here.
25.0
